Biological target: Glycine receptor subunit alpha-1 (Homo sapiens, UniProt P23415)
Sequence (P23415 whole entry): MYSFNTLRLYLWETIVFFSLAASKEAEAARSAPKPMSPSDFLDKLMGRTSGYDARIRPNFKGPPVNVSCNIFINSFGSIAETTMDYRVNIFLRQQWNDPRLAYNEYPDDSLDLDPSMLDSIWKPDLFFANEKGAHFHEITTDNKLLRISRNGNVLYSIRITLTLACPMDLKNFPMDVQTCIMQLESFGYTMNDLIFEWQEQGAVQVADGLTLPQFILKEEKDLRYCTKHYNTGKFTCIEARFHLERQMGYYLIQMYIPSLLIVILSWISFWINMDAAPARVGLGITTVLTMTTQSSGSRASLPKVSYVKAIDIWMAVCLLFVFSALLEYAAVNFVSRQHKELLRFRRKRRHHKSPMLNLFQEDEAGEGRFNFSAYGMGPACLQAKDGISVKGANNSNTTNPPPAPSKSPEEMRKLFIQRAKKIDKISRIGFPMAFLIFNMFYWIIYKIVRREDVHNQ
Experiment: Antagonist activity at recombinant human glycine receptor alpha 1 expressed in human tsA201 cells assessed as inhibition of glycine-induced receptor activation after 30 mins by FLIPR membrane potential blue assay
Format: cell-based
Settings: read-out: IC50
# pIC50 per entry
Hey, just a heads up that pIC50 is the negative log base 10 of the concentration in molar.

Reference set (3 entries):
{"structureNotation": "C#CCO/N=C1/C(=O)N2c3ccccc3[C@@]34CCN5CC6=CCO[C@@H]1[C@@H]([C@H]23)[C@H]6C[C@H]54", "pIC50": 7.28}
{"structureNotation": "CCCO/N=C1/C(=O)N2c3ccccc3[C@@]34CCN5CC6=CCO[C@@H]1[C@@H]([C@H]23)[C@H]6C[C@H]54", "pIC50": 6.96}
{"structureNotation": "O=C1/C(=N/OCCc2ccccc2)[C@@H]2OCC=C3CN4CC[C@]56c7ccccc7N1[C@H]5[C@H]2[C@H]3C[C@H]46", "pIC50": 6.16}

Glycine receptor subunit alpha-1 (Homo sapiens, UniProt P23415) data for `O=C1C[C@@H]2OCC=C3CN4CC[C@]56c7ccccc7N1[C@H]5[C@H]2[C@H]3C[C@H]46` ; its pIC50: 7.03

----------
Target: Glycine receptor subunit alpha-1 (Homo sapiens, UniProt P23415)
Assay: Displacement of [3H]strychnine from recombinant human glycine receptor alpha 1 expressed in HEK293 cell membranes after 30 mins by liquid scintillation counting method
measurementLabel: log10 of Ki (log10 of the value in nM)
The figures below represent log10 of Ki, where Ki is stated in nM.

Reference set (4 entries):
{"structureNotation": "O=C1C[C@@H]2OCC=C3CN4CC[C@]56c7ccccc7N1[C@H]5[C@H]2[C@H]3C[C@H]46", "log10 of Ki": 1.36}
{"structureNotation": "C=CCO/N=C1/C(=O)N2c3ccccc3[C@@]34CCN5CC6=CCO[C@@H]1[C@@H]([C@H]23)[C@H]6C[C@H]54", "log10 of Ki": 2.57}
{"structureNotation": "CO/N=C1/C(=O)N2c3ccccc3[C@@]34CCN5CC6=CCO[C@@H]1[C@@H]([C@H]23)[C@H]6C[C@H]54", "log10 of Ki": 2.28}
{"structureNotation": "CCCO/N=C1/C(=O)N2c3ccccc3[C@@]34CCN5CC6=CCO[C@@H]1[C@@H]([C@H]23)[C@H]6C[C@H]54", "log10 of Ki": 2.38}

Read the next record carefully.
Glycine receptor subunit alpha-1 (Homo sapiens, UniProt P23415) data for `CCC(=O)Nc1ccc2c(c1)[C@@]13CCN4CC5=CCO[C@H]6CC(=O)N2[C@H]1[C@H]6[C@H]5C[C@H]43` ; its log10 of Ki: 1.83

----------
Biological target: Glycine receptor (alpha-1/beta) (Homo sapiens, UniProt P23415+P48167)
Sequence (P23415 whole entry): as above
Sequence (P48167 whole entry): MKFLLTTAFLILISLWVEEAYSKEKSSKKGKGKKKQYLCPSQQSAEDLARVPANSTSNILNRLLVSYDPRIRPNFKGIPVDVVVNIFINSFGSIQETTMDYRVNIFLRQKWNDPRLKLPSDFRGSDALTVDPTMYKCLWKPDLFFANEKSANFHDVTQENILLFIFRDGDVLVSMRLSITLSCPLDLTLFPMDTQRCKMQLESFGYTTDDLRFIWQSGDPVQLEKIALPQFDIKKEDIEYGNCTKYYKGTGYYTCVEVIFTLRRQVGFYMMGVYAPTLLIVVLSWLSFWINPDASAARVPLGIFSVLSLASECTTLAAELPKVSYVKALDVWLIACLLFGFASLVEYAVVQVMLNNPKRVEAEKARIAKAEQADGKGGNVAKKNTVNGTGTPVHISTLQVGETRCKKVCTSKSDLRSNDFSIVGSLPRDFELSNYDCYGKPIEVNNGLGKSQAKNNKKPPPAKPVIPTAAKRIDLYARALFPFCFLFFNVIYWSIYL
Assay: Antagonist activity at recombinant human glycine receptor alpha 1 beta expressed in human tsA201 cells assessed as inhibition of glycine-induced receptor activation after 30 mins by FLIPR membrane potential blue assay
Assay type: cell-based
measurementLabel: pIC50
Hey, just a heads up that pIC50 is the negative log base 10 of the concentration in molar.

Reference set (3 entries):
{"structureNotation": "COC(=O)CO/N=C1/C(=O)N2c3ccccc3[C@@]34CCN5CC6=CCO[C@@H]1[C@@H]([C@H]23)[C@H]6C[C@H]54", "targetSystem": "Glycine receptor (alpha-1/beta) (Homo sapiens, UniProt P23415+P48167)", "measurementLabel": "pIC50", "readoutNumber": 6.17}
{"structureNotation": "CCC(=O)Nc1ccc2c(c1)[C@@]13CCN4CC5=CCO[C@H]6CC(=O)N2[C@H]1[C@H]6[C@H]5C[C@H]43", "targetSystem": "Glycine receptor (alpha-1/beta) (Homo sapiens, UniProt P23415+P48167)", "measurementLabel": "pIC50", "readoutNumber": 6.03}
{"structureNotation": "O=C1C[C@@H]2OCC=C3CN4CC[C@]56c7ccccc7N1[C@H]5[C@H]2[C@H]3C[C@H]46", "targetSystem": "Glycine receptor (alpha-1/beta) (Homo sapiens, UniProt P23415+P48167)", "measurementLabel": "pIC50", "readoutNumber": 6.74}

Please fill in: pIC50 reported for `C=CCO/N=C1/C(=O)N2c3ccccc3[C@@]34CCN5CC6=CCO[C@@H]1[C@@H]([C@H]23)[C@H]6C[C@H]54` = 6.82

Please fill in: pIC50 reported for `Nc1ccc2c(c1)[C@@]13CCN4CC5=CCO[C@H]6CC(=O)N2[C@H]1[C@H]6[C@H]5C[C@H]43` = 6.57

Please fill in: pIC50 reported for `O=C1C[C@@]23c4ccccc4N4C(=O)C[C@@H]5OCC=C6CN1[C@H]2C[C@@H]6[C@@H]5[C@H]43` = 5.01

Please fill in: pIC50 reported for `CO/N=C1/C(=O)N2c3ccccc3[C@@]34CCN5CC6=CCO[C@@H]1[C@@H]([C@H]23)[C@H]6C[C@H]54` = 6.68
